Assay: Evaluation of conversion rate to active form in buffer solution (Experimental Example 1)
Format: physicochemical
Details: pH6.5, 2 hr, 37° C., 25 umol/L in buffer solution
Structures can show the parent of a compound that is named as a salt.
property-name: Production rate of Alvocidib (%)
Numeric answer only, unit % assumed.

Production rate of Alvocidib measured on CCN(CCC1CCCCN1)C(=O)Oc1cc(O)c2c(=O)cc(-c3ccccc3Cl)oc2c1[C@H]1CCN(C)C[C@H]1O (stereo partly drawn) = 47.1

The compound identified as CN1CC[C@H](c2c(OC(=O)N(Cc3ccccc3)CC3CCCCN3)cc(O)c3c(=O)cc(-c4ccccc4Cl)oc23)[C@H](O)C1 (stereo partly drawn) registered its Production rate of Alvocidib at 44.6

Entry COCCN(CC1CCCCN1)C(=O)Oc1cc(O)c2c(=O)cc(-c3ccccc3Cl)oc2c1[C@H]1CCN(C)C[C@H]1O (stereo partly drawn) — recorded Production rate of Alvocidib = 40.5

Measured Production rate of Alvocidib, CN1CC[C@H](c2c(OC(=O)N(C)C[C@@H]3CCCCN3)cc(O)c3c(=O)cc(-c4ccccc4Cl)oc23)[C@H](O)C1 : 33.5

Production rate of Alvocidib reading for CCN(CC1CCCCN1)C(=O)Oc1cc(O)c2c(=O)cc(-c3ccccc3Cl)oc2c1[C@H]1CCN(C)C[C@H]1O (stereo partly drawn) [Example 7, dihydrochloride] : 26.8

Record summary for CCCN(C[C@H]1CCCCN1)C(=O)Oc1cc(O)c2c(=O)cc(-c3ccccc3Cl)oc2c1[C@H]1CCN(C)C[C@H]1O : reported Production rate of Alvocidib = 31.9

---

Assay: Evaluation of conversion rate to active form in buffer solution (Experimental Example 1)
Type: physicochemical
Conditions: pH6.5, 1 hr
Consider the following molecules; for each one, report its Production rate of Alvocidib.
// return numeric value only (unit: %, not printed)

Memo: CCOC(=O)O[C@@H]1CN(C)CC[C@@H]1c1c(O)cc(O)c2c(=O)cc(-c3ccccc3Cl)oc12 [Comparative Example 3, reference compound] , reported Production rate of Alvocidib: 1.2

Reported Production rate of Alvocidib ( CN1CC[C@H](c2c(OC(=O)N(C)CCN)cc(O)c3c(=O)cc(-c4ccccc4Cl)oc23)[C@H](O)C1 [Comparative Example 13, reference compound] ) = 73.5

Lab note: measured Production rate of Alvocidib of CNCCN(C)C(=O)Oc1cc(O)c2c(=O)cc(-c3ccccc3Cl)oc2c1[C@H]1CCN(C)C[C@H]1O [Comparative Example 14, reference compound] was 96.7

---

Assay: Evaluation of conversion rate to active form in BALB/c mouse plasma (Experimental Example 3)
Assay type: in vitro ADME
Conditions: BALB/c, mouse, 0 min, 0.2 μmol/L
property-name: Production rate (%) of Alvocidib
# output: bare number, implied unit %

For CCC(=O)O[C@@H]1CN(C)CC[C@@H]1c1c(O)cc(O)c2c(=O)cc(-c3ccccc3Cl)oc12 the molecule record lists Production rate (%) of Alvocidib as 6

Consider CN1CC[C@H](c2c(O)cc(O)c3c(=O)cc(-c4ccccc4Cl)oc23)[C@H](OC(=O)[C@@H](N)CO)C1 [Comparative Example 9, reference compound] . Its measured Production rate (%) of Alvocidib is 3

The measured Production rate (%) of Alvocidib associated with CCNC(=O)O[C@@H]1CN(C)CC[C@@H]1c1c(O)cc(O)c2c(=O)cc(-c3ccccc3Cl)oc12 [Comparative Example 4, reference compound] reads 2

Sample CC(C)[C@H](N)C(=O)O[C@@H]1CN(C)CC[C@@H]1c1c(O)cc(O)c2c(=O)cc(-c3ccccc3Cl)oc12 [Comparative Example 10, reference compound] ; Production rate (%) of Alvocidib observed: 1

Query CN1CC[C@H](c2c(O)cc(O)c3c(=O)cc(-c4ccccc4Cl)oc23)[C@H](OC(=O)CN)C1 [Comparative Example 8, reference compound] yields Production rate (%) of Alvocidib of 19

---

Assign Production rate of Alvocidib to each entry below.
Assay: Evaluation of conversion rate to active form in buffer solution (Experimental Example 1)
Type: physicochemical
Conditions: pH5.5, 0 hr
Give a bare numeral; the unit % is implied.

Lookup result for CNCCN(C)C(=O)Oc1cc(O)c2c(=O)cc(-c3ccccc3Cl)oc2c1[C@H]1CCN(C)C[C@H]1O [Comparative Example 14, reference compound] ; measured Production rate of Alvocidib: 1.4

Sure, the documented Production rate of Alvocidib for CNC(=O)O[C@@H]1CN(C)CC[C@@H]1c1c(O)cc(O)c2c(=O)cc(-c3ccccc3Cl)oc12 [Comparative Example 5, reference compound] is 0.0

Short answer for CN1CC[C@H](c2c(O)cc(O)c3c(=O)cc(-c4ccccc4Cl)oc23)[C@H](OC(=O)CN)C1 [Comparative Example 8, reference compound] : Production rate of Alvocidib was 16.1

Looking up CN1CC[C@H](c2c(OC(=O)N(C)CCN)cc(O)c3c(=O)cc(-c4ccccc4Cl)oc23)[C@H](O)C1 [Comparative Example 13, reference compound] , I found its Production rate of Alvocidib recorded as 0.0

For CNC(=O)Oc1cc(O)c2c(=O)cc(-c3ccccc3Cl)oc2c1[C@H]1CCN(C)C[C@H]1O [Comparative Example 2, reference compound] the molecule record lists Production rate of Alvocidib as 2.4

In plain terms, CCOC(=O)O[C@@H]1CN(C)CC[C@@H]1c1c(O)cc(O)c2c(=O)cc(-c3ccccc3Cl)oc12 [Comparative Example 3, reference compound] has a documented Production rate of Alvocidib of 1.1

For this molecule ( C[C@H](N)C(=O)O[C@@H]1CN(C)CC[C@@H]1c1c(O)cc(O)c2c(=O)cc(-c3ccccc3Cl)oc12 [Comparative Example 7, reference compound] ), measured Production rate of Alvocidib is 2.7

For reference, reported Production rate of Alvocidib for CN1CC[C@H](c2c(O)cc(O)c3c(=O)cc(-c4ccccc4Cl)oc23)[C@H](OC(=O)[C@@H](N)CO)C1 [Comparative Example 9, reference compound] stands at 4.9

Record CCNC(=O)O[C@@H]1CN(C)CC[C@@H]1c1c(O)cc(O)c2c(=O)cc(-c3ccccc3Cl)oc12 [Comparative Example 4, reference compound] , field Production rate of Alvocidib: 1.8

Notebook: CC(C)[C@H](N)C(=O)O[C@@H]1CN(C)CC[C@@H]1c1c(O)cc(O)c2c(=O)cc(-c3ccccc3Cl)oc12 [Comparative Example 10, reference compound] , Production rate of Alvocidib read as 2.0

---

Assay: Evaluation of conversion rate to active form in buffer solution (Experimental Example 1)
Format: physicochemical
Details: pH7.4, 2 hr, 37° C., 25 umol/L in buffer solution
property-name: Residual rate (%)
Write it as a number; the unit % goes unstated.

Recorded Residual rate (compound CC(C)N(CC1CCCCN1)C(=O)Oc1cc(O)c2c(=O)cc(-c3ccccc3Cl)oc2c1[C@H]1CCN(C)C[C@H]1O (stereo partly shown) [Example 10] ): 0.9

The reported Residual rate of the compound CCN(C[C@H]1CCCCN1)C(=O)Oc1cc(O)c2c(=O)cc(-c3ccccc3Cl)oc2c1[C@H]1CCN(C)C[C@H]1O [Example 2] was 3.5

CCCN(C[C@@H]1CCCCN1)C(=O)Oc1cc(O)c2c(=O)cc(-c3ccccc3Cl)oc2c1[C@H]1CCN(C)C[C@H]1O [Example 5] yielded Residual rate of 5.9

Consider COCCN(CC1CCCCN1)C(=O)Oc1cc(O)c2c(=O)cc(-c3ccccc3Cl)oc2c1[C@H]1CCN(C)C[C@H]1O (stereo partly shown) [Example 12] . Its measured Residual rate is 0.0

---

Can you tell me Residual rate for the items I'm about to list?
Test: Evaluation of conversion rate to active form in buffer solution (Experimental Example 1)
Type: physicochemical
Settings: pH5.0, 0.5 hr, 37° C., 25 umol/L in buffer solution
Structures can show the parent of a compound that is named as a salt.
Number only, in %; omit the unit.

Note to self: Residual rate recorded for CN1CC[C@H](c2c(OC(=O)N(CCF)CC3CCCCN3)cc(O)c3c(=O)cc(-c4ccccc4Cl)oc23)[C@H](O)C1 (stereo partly shown) [Example 11] was 82.7

Residual rate reported for this molecule CCN(C[C@H]1CCCCN1)C(=O)Oc1cc(O)c2c(=O)cc(-c3ccccc3Cl)oc2c1[C@H]1CCN(C)C[C@H]1O [Example 2] : 95.4

Field Residual rate (entry CC(C)N(CC1CCCCN1)C(=O)Oc1cc(O)c2c(=O)cc(-c3ccccc3Cl)oc2c1[C@H]1CCN(C)C[C@H]1O (stereo partly shown) [Example 10] ) reads 90.4

Record CCCN(C[C@H]1CCCCN1)C(=O)Oc1cc(O)c2c(=O)cc(-c3ccccc3Cl)oc2c1[C@H]1CCN(C)C[C@H]1O [Example 6] , field Residual rate: 99.1

Residual rate reading for CN1CC[C@H](c2c(OC(=O)N(C)CC3CCCCN3)cc(O)c3c(=O)cc(-c4ccccc4Cl)oc23)[C@H](O)C1 (stereo partly shown) [Example 8] : 95.1

Given item CN1CC[C@H](c2c(OC(=O)N(CCC(F)(F)F)CC3CCCCN3)cc(O)c3c(=O)cc(-c4ccccc4Cl)oc23)[C@H](O)C1 (stereo partly shown) [Example 13] , the value recorded as its Residual rate is 81.7

Note to self: Residual rate recorded for CCN(CC1CCCCN1)C(=O)Oc1cc(O)c2c(=O)cc(-c3ccccc3Cl)oc2c1[C@H]1CCN(C)C[C@H]1O (stereo partly shown) [Example 7, dihydrochloride] was 100.0

The recorded Residual rate for entry CN1CC[C@H](c2c(OC(=O)N(C)C[C@@H]3CCCCN3)cc(O)c3c(=O)cc(-c4ccccc4Cl)oc23)[C@H](O)C1 [Example 3] equals 99.1

Short answer for CCNC(=O)Oc1cc(O)c2c(=O)cc(-c3ccccc3Cl)oc2c1[C@H]1CCN(C)C[C@H]1O [Comparative Example 1, reference compound] : Residual rate was 62.1

COCCN(CC1CCCCN1)C(=O)Oc1cc(O)c2c(=O)cc(-c3ccccc3Cl)oc2c1[C@H]1CCN(C)C[C@H]1O (stereo partly shown) [Example 12] yielded Residual rate of 80.3

The molecule CCCN(CC1CCCCN1)C(=O)Oc1cc(O)c2c(=O)cc(-c3ccccc3Cl)oc2c1[C@H]1CCN(C)C[C@H]1O (stereo partly shown) [Example 9] showed Residual rate equal to 95.9

Input CCN(CCC1CCCCN1)C(=O)Oc1cc(O)c2c(=O)cc(-c3ccccc3Cl)oc2c1[C@H]1CCN(C)C[C@H]1O (stereo partly shown) [Example 16] . Output Residual rate: 84.9

CN1CC[C@H](c2c(OC(=O)N(C)C[C@H]3CCCCN3)cc(O)c3c(=O)cc(-c4ccccc4Cl)oc23)[C@H](O)C1 [Example 4] has a reported Residual rate of 98.5
